Origin of measurements: ChEMBL document CHEMBL3421623

Biological target: Aromatase (Homo sapiens, UniProt P11511)
Sequence (P11511 whole entry): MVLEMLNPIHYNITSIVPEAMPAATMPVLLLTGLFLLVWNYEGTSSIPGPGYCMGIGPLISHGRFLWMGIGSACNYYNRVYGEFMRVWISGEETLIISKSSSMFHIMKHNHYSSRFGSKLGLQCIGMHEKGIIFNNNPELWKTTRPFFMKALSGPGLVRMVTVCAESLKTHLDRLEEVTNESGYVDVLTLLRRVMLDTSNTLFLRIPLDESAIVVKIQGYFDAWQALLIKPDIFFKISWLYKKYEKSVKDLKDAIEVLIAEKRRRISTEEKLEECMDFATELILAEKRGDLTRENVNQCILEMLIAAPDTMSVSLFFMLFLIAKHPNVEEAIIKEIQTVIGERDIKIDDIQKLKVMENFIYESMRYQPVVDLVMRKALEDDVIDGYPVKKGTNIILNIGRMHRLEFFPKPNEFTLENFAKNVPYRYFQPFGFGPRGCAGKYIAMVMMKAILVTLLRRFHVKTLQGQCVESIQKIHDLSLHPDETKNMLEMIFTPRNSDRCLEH
Assay: Inhibition of human recombinant aromatase using 7-methoxy-trifluoromethylcoumarin as substrate assessed as formation of fluorescent metabolite after 30 mins by fluorescence assay
observed property: pIC50
Scale: pIC50 equals -log10([C]), with [C] in mol/L.

State its pIC50 on Aromatase (Homo sapiens, UniProt P11511): "NCCOc1ccc(/C(=C(\Cn2cnnc2)c2ccccc2)c2ccc(O)cc2)cc1"
6.16

State its pIC50 on Aromatase (Homo sapiens, UniProt P11511): N#CC/C(=C(/c1ccc(O)cc1)c1ccc(OCCN)cc1)c1ccccc1 (mixture of isomers)
7.31

State its pIC50 on Aromatase (Homo sapiens, UniProt P11511): NCCOc1ccc(/C(=C(\Cn2ccnc2)c2ccccc2)c2ccc(O)cc2)cc1 (mixture of isomers)
7.77

State its pIC50 on Aromatase (Homo sapiens, UniProt P11511): CC/C(=C(/c1ccc(O)cc1)c1ccc(OCCN)cc1)c1ccc(O)cc1 (mixture of isomers)
7.35

State its pIC50 on Aromatase (Homo sapiens, UniProt P11511): CC/C(=C(/c1ccc(O)cc1)c1ccc(OCCN)cc1)c1ccc(F)cc1 (mixture of isomers)
5.99

State its pIC50 on Aromatase (Homo sapiens, UniProt P11511): NCCOc1ccc(/C(=C(\Cn2cncn2)c2ccccc2)c2ccc(O)cc2)cc1 (mixture of isomers)
6.76

State its pIC50 on Aromatase (Homo sapiens, UniProt P11511): CC/C(=C(/c1ccc(O)cc1)c1ccc(CCCN)cc1)c1ccccc1 (mixture of isomers)
5.13

State its pIC50 on Aromatase (Homo sapiens, UniProt P11511): CC/C(=C(/c1ccc(O)cc1)c1ccc(OCCO)cc1)c1ccccc1 (mixture of isomers)
4.52

State its pIC50 on Aromatase (Homo sapiens, UniProt P11511): "CCC(CC)=C(c1ccc(O)cc1)c1ccc(OCCN)cc1"
5.88

State its pIC50 on Aromatase (Homo sapiens, UniProt P11511): CC/C(=C(/c1ccc(O)cc1)c1ccc(OCC(=O)O)cc1)c1ccccc1 (mixture of isomers)
5.43

State its pIC50 on Aromatase (Homo sapiens, UniProt P11511): CC(C)/C(=C(/c1ccc(O)cc1)c1ccc(OCCN)cc1)c1ccccc1 (mixture of isomers)
6.48

State its pIC50 on Aromatase (Homo sapiens, UniProt P11511): CC/C(=C(/c1ccc(O)cc1)c1ccc(CCCN)cc1)c1ccc(O)cc1 (mixture of isomers)
6.31

State its pIC50 on Aromatase (Homo sapiens, UniProt P11511): "NCCOc1ccc(/C(=C(/Cn2cnnc2)c2ccccc2)c2ccc(O)cc2)cc1"
6.15

State its pIC50 on Aromatase (Homo sapiens, UniProt P11511): "NCCOc1ccc(C(=C(c2ccccc2)c2ccccc2)c2ccc(O)cc2)cc1"
5.71

State its pIC50 on Aromatase (Homo sapiens, UniProt P11511): C/C(=C(/c1ccc(O)cc1)c1ccc(OCCN)cc1)c1ccccc1 (mixture of isomers)
6.47

State its pIC50 on Aromatase (Homo sapiens, UniProt P11511): CC/C(=C(/c1ccc(N)cc1)c1ccc(OCCN)cc1)c1ccccc1 (mixture of isomers)
7.27

State its pIC50 on Aromatase (Homo sapiens, UniProt P11511): CC/C(=C(/c1ccc(N)cc1)c1ccc(OCCN)cc1)c1ccc(O)cc1 (mixture of isomers)
7.32

State its pIC50 on Aromatase (Homo sapiens, UniProt P11511): NCCOc1ccc(/C(=C/c2ccccc2)c2ccc(O)cc2)cc1 (mixture of isomers)
5.20

State its pIC50 on Aromatase (Homo sapiens, UniProt P11511): CCC/C(=C(/c1ccc(O)cc1)c1ccc(OCCN)cc1)c1ccccc1 (mixture of isomers)
6.58

State its pIC50 on Aromatase (Homo sapiens, UniProt P11511): NCCOc1ccc(/C(=C(\CCCl)c2ccccc2)c2ccc(O)cc2)cc1 (mixture of isomers)
6.84

State its pIC50 on Aromatase (Homo sapiens, UniProt P11511): CC/C(=C(/c1ccc(O)cc1)c1ccc(OCCCN)cc1)c1ccccc1 (mixture of isomers)
5.91

State its pIC50 on Aromatase (Homo sapiens, UniProt P11511): CC/C(=C(/c1ccccc1)c1ccc(OCCN)cc1)c1ccccc1 (mixture of isomers)
6.04

State its pIC50 on Aromatase (Homo sapiens, UniProt P11511): NCCOc1ccc(/C(=C2\CCc3ccccc32)c2ccc(O)cc2)cc1 (mixture of isomers)
6.31
